- TEST_TARGET: T1, human Gal10-His (human, UniProt Q05315 2-142, limits assumed)
- T1 construct: also called hGal10-His; human Gal10-His tagged; not shown: His tag
- T1 sequence: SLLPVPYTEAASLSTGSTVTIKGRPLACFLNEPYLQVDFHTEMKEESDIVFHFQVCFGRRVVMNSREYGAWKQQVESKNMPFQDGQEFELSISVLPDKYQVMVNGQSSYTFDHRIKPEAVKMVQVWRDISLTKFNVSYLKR
- ASSAY_REMARKS: SPR Biacore 3000, purified hFab (2 conc.) on Gal10-His captured by anti-His CM5
pKd: −log10 of the molar value.
Form field: pKd (one value per entry).
ENDPOINT_LABEL: pKd

{"BINDER": "g20H09 (Fab) (Fab, V domains shown, same VH/VL) VH: EVQLLESGGGLVQPGGSLRLSCAASGFTFRSYDMSWVRQAPGKGLEWVSAIKWHRITYYADSVKGRFTISRDNSKNTLYLQMNSLRAEDTAVYYCATTHGIGTLGFGSWGQGTLVTVSS VL: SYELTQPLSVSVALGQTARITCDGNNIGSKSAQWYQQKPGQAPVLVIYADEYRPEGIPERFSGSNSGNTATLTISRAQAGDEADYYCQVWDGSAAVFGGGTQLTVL", "ENDPOINT_LABEL": "pKd", "MEAS_VALUE": 7.76}
{"BINDER": "g24F02 (human Fab) (Fab, V domains shown, Human Fab backbone (human CH1, human lambda CL); also called germlined 24F02) VH: EVQLLESGGGLVQPGGSLRLSCAASGFTFSSYAMSWVRQAPGKGLEWVSAINNGGGSTSYADSVKGRFTISRDNSKNTLYLQMNSLRAEDTAVYYCAKGLRVGVLGFDYWGQGTLVTVSS VL: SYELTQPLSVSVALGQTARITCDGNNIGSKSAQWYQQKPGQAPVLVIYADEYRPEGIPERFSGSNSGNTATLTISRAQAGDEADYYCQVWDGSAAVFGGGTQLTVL", "ENDPOINT_LABEL": "pKd", "MEAS_VALUE": 8.70}
{"BINDER": "g24F02_N53A (human Fab) (Fab, V domains shown, Human Fab backbone: human CH1 and human lambda constant domain (pUPEX vectors); also called g24F02_N53A_2W) VH: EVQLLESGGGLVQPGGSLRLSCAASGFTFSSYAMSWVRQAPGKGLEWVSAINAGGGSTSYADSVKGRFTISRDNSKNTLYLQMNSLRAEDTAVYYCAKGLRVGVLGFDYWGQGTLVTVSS VL: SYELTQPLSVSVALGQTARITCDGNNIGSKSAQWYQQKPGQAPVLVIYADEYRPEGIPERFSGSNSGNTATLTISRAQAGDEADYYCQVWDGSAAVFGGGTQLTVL", "ENDPOINT_LABEL": "pKd", "MEAS_VALUE": 8.64}
{"BINDER": "g7B07_N53A (human Fab) (Fab, V domains shown, VH assembled by inference as for g7B07; Human Fab backbone; also called g7B07_N53A (mean)) VH: EVQLLESGGGLVQPGGSLRLSCAASGFTFRSYDMSWVRQAPGKGLEWVSAIKAGGGITYYADSVKGRFTISRDNSKNTLYLQMNSLRAEDTAVYYCATTHGIGTLGFGSWGQGTLVTVSS VL: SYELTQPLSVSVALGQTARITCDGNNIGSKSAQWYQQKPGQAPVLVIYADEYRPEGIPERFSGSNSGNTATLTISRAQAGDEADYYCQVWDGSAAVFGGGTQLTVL", "ENDPOINT_LABEL": "pKd", "MEAS_VALUE": 6.84}
{"BINDER": "g7B07 (human Fab) (Fab, V domains shown, Human Fab backbone; their format is not certain; also called g7B07-hFab; germlined 7B07) VH: EVQLLESGGGLVQPGGSLRLSCAASGFTFRSYDMSWVRQAPGKGLEWVSAIKNGGGITYYADSVKGRFTISRDNSKNTLYLQMNSLRAEDTAVYYCATTHGIGTLGFGSWGQGTLVTVSS VL: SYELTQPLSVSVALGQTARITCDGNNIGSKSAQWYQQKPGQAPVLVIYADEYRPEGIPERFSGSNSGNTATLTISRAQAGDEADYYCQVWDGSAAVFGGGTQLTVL", "ENDPOINT_LABEL": "pKd", "MEAS_VALUE": 7.95}
{"BINDER": "g23H09 (Fab) (Fab, V domains shown, same VH/VL) VH: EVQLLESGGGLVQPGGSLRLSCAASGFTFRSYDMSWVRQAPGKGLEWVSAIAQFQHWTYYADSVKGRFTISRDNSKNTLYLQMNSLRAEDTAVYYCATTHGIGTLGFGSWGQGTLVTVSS VL: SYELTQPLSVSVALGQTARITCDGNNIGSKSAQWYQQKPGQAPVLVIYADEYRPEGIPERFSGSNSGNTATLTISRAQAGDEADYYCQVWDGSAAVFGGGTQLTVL", "ENDPOINT_LABEL": "pKd", "MEAS_VALUE": 8.41}

Where these numbers come from: patent US20250059285A1
